- experiment summary: in vitro
- condition notes: male, Sprague-Dawley, rat, s9, 20 min, 1 μM
- Method: The reaction mixture, minus cofactors, was prepared as described below. The test article was added into the reaction mixture at a final concentration of 1 μM. […] Half-lives were calculated using GraphPad software, fitting to single-phase exponential decay equation. Reaction mixture, minus cofactors, was prepared as described below. […] Halflives were calculated using GraphPad software, fitting to a single-phase exponential decay equation. […]

| compound | measurement unit | relational operator | % Remaining of Initial (n = 1), 20 min |
| --- | --- | --- | --- |
| CCCCCCCCCCCCCCCC(=O)NCCOC(=O)CCC(=O)OCC(O)CO (stereo not shown) | % | = | 26 |
| CCCCCCCCCCCCCCCC(=O)NCCOC(=O)CCC(=O)OCC(COC(=O)CCC)OC(=O)CCC (stereo not shown) | % | < | 1.0 |
| CCCCCCCCCCCCCCCC(=O)NCCOC(=O)CCC | % | < | 1.0 |
| CCCCCCCCCCCCCCCC(=O)NCCOC(=O)CCC(=O)OC[C@H]1O[C@@](CO)(O[C@H]2O[C@H](CO)[C@@H](O)[C@H](O)[C@H]2O)[C@@H](O)[C@@H]1O | % | = | 37 |
| CCCCCCCCCCCCCCCC(=O)NCCOC(=O)CCC(=O)OCC(COC(=O)CCCCCCC)OC(=O)CCCCCCC (stereo not shown) [Compound I-3, PEA-Succinate-Glycerol-Di-Caprylic] | % | = | 46 |
| CCCCC/C=C\C/C=C\CCCCCCCC(=O)OCCNC(=O)CCCCCCCCCCCCCCC | % | = | 92 |
| CC/C=C\C/C=C\C/C=C\C/C=C\C/C=C\CCCC(=O)OCCNC(=O)CCCCCCCCCCCCCCC | % | = | 48 |

====

- experiment summary: Intestinal S9 fraction stability, human
- condition notes: both, human, s9, CLint, Human intestinal S9 fraction, control compound
attribute measured: microsomal CLint (µL/min/mg)

| compound | measurement unit | result value |
| --- | --- | --- |
| C[C@]12CC[C@H]3[C@@H](CCC4=CC(=O)CC[C@@]43C)[C@@H]1CC[C@@H]2O [Testosterone, testosterone, reference compound] | µL/min/mg | 50.9 |

====

- experiment summary: Intestinal S9 fraction stability, dog
- condition notes: male, Beagle, dog, s9, CLint (ml/min/mg protein), control compound, dog intestinal S9 fraction

| compound | microsomal CLint |
| --- | --- |
| C[C@]12CC[C@H]3[C@@H](CCC4=CC(=O)CC[C@@]43C)[C@@H]1CC[C@@H]2O [Testosterone, testosterone, reference compound] | < 11.6 µL/min/mg |

====

- experiment summary: in vitro
- condition notes: male, Beagle, dog, s9, 20 min, 1 μM
% Remaining of Initial (n = 1), 20 min overview

| compound | relational operator | % Remaining of Initial (n = 1), 20 min / % |
| --- | --- | --- |
| CCCCCCCCCCCCCCCC(=O)NCCOC(=O)CCC(=O)OC[C@H]1O[C@@](CO)(O[C@H]2O[C@H](CO)[C@@H](O)[C@H](O)[C@H]2O)[C@@H](O)[C@@H]1O [Compound I-7] | < | 1.0 |
| CC/C=C\C/C=C\C/C=C\C/C=C\C/C=C\CCCC(=O)OCCNC(=O)CCCCCCCCCCCCCCC [Compound I-5] | = | 79 |
| CCCCCCCCCCCCCCCC(=O)NCCOC(=O)CCC(=O)OCC(COC(=O)CCC)OC(=O)CCC (stereo not shown) [Compound I-11] | = | 1.6 |
| CCCCC/C=C\C/C=C\CCCCCCCC(=O)OCCNC(=O)CCCCCCCCCCCCCCC [Compound I-6] | = | 106 |

====

Documented Concentration (μM) of analyte PEA, 10 min across a set of compounds
- experiment summary: in vitro
- condition notes: male, Beagle, dog, 10 min, 1 μM
- Description: Reaction mixture, minus cofactors, was prepared as described below. Test article was added into the reaction mixture at a final concentration of 1 μM. […] Half-lives were calculated using GraphPad software, fitting to a single-phase exponential decay equation. Reaction mixture, minus cofactors, was prepared as described below. […] Half-lives were calculated using GraphPad software, fitting to a single-phase exponential decay equation. […]
attribute measured: Concentration (μM) of analyte PEA, 10 min (µM)

| compound | measurement unit | result value |
| --- | --- | --- |
| CCCCCCCCCCCCCCCC(=O)NCCOC(=O)CCC(=O)OCC(COC(=O)CCCCCCC)OC(=O)CCCCCCC (stereo not shown) [Compound I-3, PEA-Succinate-Glycerol-Di-Caprylic] | µM | 0.030 |
| CCCCC/C=C\C/C=C\CCCCCCCC(=O)OCCNC(=O)CCCCCCCCCCCCCCC | µM | 0.044 |
| CCCCCCCCCCCCCCCC(=O)NCCOC(=O)CCC(=O)OC[C@H]1O[C@@](CO)(O[C@H]2O[C@H](CO)[C@@H](O)[C@H](O)[C@H]2O)[C@@H](O)[C@@H]1O | µM | 0.16 |
| CCCCCCCCCCCCCCCC(=O)NCCOC(=O)CCC | µM | 0.38 |
| CCCCCCCCCCCCCCCC(=O)NCCOC(=O)CCC(=O)OCC(COC(=O)CCC)OC(=O)CCC (stereo not shown) | µM | 0.51 |
| CC/C=C\C/C=C\C/C=C\C/C=C\C/C=C\CCCC(=O)OCCNC(=O)CCCCCCCCCCCCCCC | µM | 0.044 |
| CCCCCCCCCCCCCCCC(=O)NCCOC(=O)CCC(=O)OCC(O)CO (stereo not shown) | µM | 0.29 |

====

This listing pairs molecules with measured Concentration (μM) of analyte PEA, 0 min.
- experiment summary: in vitro
- condition notes: both, human, 0 min, 1 μM

| molecule | Concentration (μM) of analyte PEA, 0 min / µM |
| --- | --- |
| CCCCCCCCCCCCCCCC(=O)NCCOC(=O)CCC(=O)OCC(O)CO (stereo not shown) | 0.35 |
| CCCCCCCCCCCCCCCC(=O)NCCOC(=O)CCC(=O)OCC(COC(=O)CCC)OC(=O)CCC (stereo not shown) | 0.047 |
| CCCCCCCCCCCCCCCC(=O)NCCOC(=O)CCC | 0.20 |
| CC/C=C\C/C=C\C/C=C\C/C=C\C/C=C\CCCC(=O)OCCNC(=O)CCCCCCCCCCCCCCC | 0.024 |
| CCCCC/C=C\C/C=C\CCCCCCCC(=O)OCCNC(=O)CCCCCCCCCCCCCCC | 0.014 |
| CCCCCCCCCCCCCCCC(=O)NCCOC(=O)CCC(=O)OC[C@H]1O[C@@](CO)(O[C@H]2O[C@H](CO)[C@@H](O)[C@H](O)[C@H]2O)[C@@H](O)[C@@H]1O | 0.20 |
| CCCCCCCCCCCCCCCC(=O)NCCOC(=O)CCC(=O)OCC(COC(=O)CCCCCCC)OC(=O)CCCCCCC (stereo not shown) [Compound I-3, PEA-Succinate-Glycerol-Di-Caprylic] | 0.00032 |

====

- experiment summary: in vitro
- condition notes: male, Sprague-Dawley, rat, 0 min, 1 μM
attribute measured: Measured concentration of analyte PEA, 0 min (µM)

| compound | measurement unit | result value |
| --- | --- | --- |
| CCCCCCCCCCCCCCCC(=O)NCCOC(=O)CCC | µM | 0.40 |
| CCCCCCCCCCCCCCCC(=O)NCCOC(=O)CCC(=O)OC[C@H]1O[C@@](CO)(O[C@H]2O[C@H](CO)[C@@H](O)[C@H](O)[C@H]2O)[C@@H](O)[C@@H]1O | µM | 0.054 |
| CCCCCCCCCCCCCCCC(=O)NCCOC(=O)CCC(=O)OCC(O)CO (stereo not shown) | µM | 0.22 |
| CCCCC/C=C\C/C=C\CCCCCCCC(=O)OCCNC(=O)CCCCCCCCCCCCCCC | µM | 0.14 |
| CCCCCCCCCCCCCCCC(=O)NCCOC(=O)CCC(=O)OCC(COC(=O)CCC)OC(=O)CCC (stereo not shown) | µM | 0.023 |
| CCCCCCCCCCCCCCCC(=O)NCCOC(=O)CCC(=O)OCC(COC(=O)CCCCCCC)OC(=O)CCCCCCC (stereo not shown) [Compound I-3, PEA-Succinate-Glycerol-Di-Caprylic] | µM | 0.032 |
| CC/C=C\C/C=C\C/C=C\C/C=C\C/C=C\CCCC(=O)OCCNC(=O)CCCCCCCCCCCCCCC | µM | 0.034 |

====

Parameter: % Remaining of Initial (n = 1). Scope: all listed entries.
- experiment summary: Simulated intestinal fluid (SIF) stability in the presence of various enzymes
- Type: in vitro ADME
- condition notes: SIF + Carboxypeptidase B, 120 min, 1 μM
attribute measured: % Remaining of Initial (n = 1) (%)

| molecule | result value |
| --- | --- |
| CCCCCCCCCCCCCCCC(=O)NCCOC(=O)CCC(=O)OCC(COC(=O)CCCCCCC)OC(=O)CCCCCCC (stereo not shown) [Compound I-3, PEA-Succinate-Glycerol-Di-Caprylic] | 15 |
| CCCCC/C=C\C/C=C\CCCCCCCC(=O)OCC(COC(=O)CCC(=O)OCCNC(=O)CCCCCCCCCCCCCCC)OC(=O)CCCCCCC/C=C\C/C=C\CCCCC (stereo not shown) | 8.7 |
| CCCCC/C=C\C/C=C\CCCCCCCC(=O)OCCNC(=O)CCCCCCCCCCCCCCC | 19 |
| CCCCCCCCCCCCCCCC(=O)NCCOC(=O)CCC | 17 |

// provenance: patent US11547681B2
